- System: Jurkat and CCRF-CEM lineages
- Assay explanation: Annexin V-FITC/PI cytotoxicity, EC50 span over ALL lineages (discussion)
- Type: cell-based
- Assay conditions: Homo sapiens; in Jurkat and CCRF-CEM lineages
pEC50: −log10 of the molar value.
Experimental readout: pEC50

Record summary for OCCCc1cn(CCCCCCCCCCCCI)nn1 [Compound 9] : reported pEC50 = 4.15 to 4.40

====

Kindly state IC50 for each of the entries shown.
Report only the number, with the unit nM understood.

The recorded IC50 with cathepsin L (Homo sapiens) for CCCCCCCCCCCCCCCCOP(=O)([O-])OCC[N+](C)(C)C [Compound 1, reference compound] was 10500

The recorded IC50 with cathepsin L (Homo sapiens) for OCCCc1cn(CCCCCCCCCCCCI)nn1 [Compound 9] was 1300

The recorded IC50 with cathepsin L (Homo sapiens) for CC(=O)OCCCc1cn(CCCCCCCCCCCCOS(C)(=O)=O)nn1 [Compound 21] was 1600

====

Experimental readout: pKi
To interpret pKi, take it as minus log10 of a concentration measured in moles per litre.

The recorded pKi with cathepsin B (Homo sapiens, UniProt P07858) for OCCCc1cn(CCCCCCCCCCCCI)nn1 [Compound 9] was 4.82

====

Kindly state pEC50 for each of the entries shown.
- System: CCRF-CEM (acute lymphoblastic leukemia)
- Assay explanation: Annexin V-FITC/PI cytotoxicity, concentration-response
- Assay type: cell-based
- Assay conditions: Homo sapiens, CCRF-CEM cells, 24 h
To interpret pEC50, take it as minus log10 of a concentration measured in moles per litre.

Record summary for OCCCc1cn(CCCCCCCCCCCCI)nn1 : reported pEC50 = 4.40

Record summary for CC(=O)OCCCc1cn(CCCCCCCCCCCCOS(C)(=O)=O)nn1 : reported pEC50 = 4.22

Record summary for CCCCCCCCCCCCCCCCOP(=O)([O-])OCC[N+](C)(C)C [Compound 1, reference compound] : reported pEC50 = 3.92

Provenance of the data: paper PMC9737184
